Biological target: RET(KD: 658-1114 G810R) (Homo sapiens, UniProt P07949, G810R)
Construct: 658-1114; expressed in transfected cells; host or cells: 293T.165 (293T cells, generated in-house)
Sequence (P07949 658-1114 G810R): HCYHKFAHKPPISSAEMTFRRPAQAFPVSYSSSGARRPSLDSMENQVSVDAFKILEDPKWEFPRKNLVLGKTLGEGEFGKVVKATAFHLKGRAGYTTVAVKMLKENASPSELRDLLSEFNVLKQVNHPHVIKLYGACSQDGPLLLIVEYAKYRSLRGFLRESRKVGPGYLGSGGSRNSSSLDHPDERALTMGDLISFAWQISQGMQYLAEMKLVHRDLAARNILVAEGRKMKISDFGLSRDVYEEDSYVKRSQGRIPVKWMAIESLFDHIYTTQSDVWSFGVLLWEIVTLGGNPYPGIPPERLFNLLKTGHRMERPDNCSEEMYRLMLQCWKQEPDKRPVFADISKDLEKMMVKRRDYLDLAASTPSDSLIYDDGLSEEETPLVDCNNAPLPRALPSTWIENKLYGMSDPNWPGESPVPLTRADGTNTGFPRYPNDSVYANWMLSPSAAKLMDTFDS
Experiment: HiBiT-Degradation, RET G810R degradation assay (Nano-Glo HiBiT Lytic), 293T.165 cells
Type: cell-based
Protocol: Dulbecco's modified Eagle medium (DMEM) no-phenol red media and fetal bovine serum (FBS) were purchased from Gibco (Grand Island, NY, USA). […] RET wild-type (WT) and G810R degradation were assessed using the Nano-Glo® HiBiT Lytic assay (Promega, Medison, WI, USA). […] Luminescence signal was measured using an EnVision™ Multimode plate reader (Perkin Elmer, Santa Clara, CA, USA). […]
Property Measured: 293T.165 RET(KD: 658-1114 G810R) 6.0 hours (IP) [nM]

A selection of reference data follows.
N#Cc1cnn2cc(-c3cnn(C4CCC(N5CCN(c6ccc(NC7CCC(=O)NC7=O)cc6F)CC5)CC4)c3)nc(-c3ccc(N4C[C@H]5COC[C@@H](C4)N5CC4CCC(F)(F)CC4)nc3)c12 (single isomer, unassigned) = ++++ (<50 nM = ++++)
CC(C)NC(=O)C1(C)CCN(c2ccc(-c3cc(-c4cnn(C5CCC6(CC5)CN(C(=O)CN5CCC(c7ccc(NC8CCC(=O)NC8=O)cc7)CC5)C6)c4)cn4ncc(C#N)c34)cn2)CC1 (centres unmarked) = ++++ (<50 nM = ++++)
N#Cc1cnn2cc(-c3cnn(C4CCN(C(=O)CC5(O)CCN(c6ccc(NC7CCC(=O)NC7=O)cc6F)CC5)CC4)c3)nc(-c3ccc(N4CCCN(Cc5ccccc5)CC4)nc3)c12 (centres unmarked) = ++++ (<50 nM = ++++)
CO[C@@H](C(=O)N1CCN(c2ccc(-c3nc(-c4cnn([C@H]5CC[C@@H](N6CCN(c7c(F)cc(NC8CCC(=O)NC8=O)cc7F)CC6)CC5)c4)cn4ncc(C#N)c34)cn2)CC1)c1ccccc1 (single isomer, unassigned) = ++++ (<50 nM = ++++)
CCC1(C(=O)NC(C)C)CCN(c2ccc(-c3cc(-c4cnn([C@H]5CC[C@H](N6CCC(c7ccc(N[C@@H]8CCC(=O)NC8=O)cc7F)CC6)CC5)c4)cn4ncc(C#N)c34)cn2)CC1 (single isomer, unassigned) = ++++ (<50 nM = ++++)

Below are some compounds; for each one, tell me its 293T.165 RET(KD: 658-1114 G810R) 6.0 hours (IP) [nM].
1. CCC1(C(=O)NC2CCC2)CCN(c2ccc(-c3nc(-c4cnn([C@H]5CC[C@H](N6CCN(c7cc(OC)c(N[C@@H]8CCC(=O)NC8=O)cc7F)CC6)CC5)c4)cn4ncc(C#N)c34)cn2)CC1 (single isomer, unassigned)
2. CCC1(C(=O)NC(C)C)CCN(c2ccc(-c3nc(-c4cnn(C5CCN(C(=O)CC6(O)CCN(c7ccc(NC8CCC(=O)NC8=O)cc7C(F)F)CC6)CC5)c4)cn4ncc(C#N)c34)cn2)CC1 (centres unmarked)
3. COc1cc(N2CCN(C3CCC(n4cc(-c5cn6ncc(C#N)c6c(-c6ccc(N7CC8COCC(C7)N8Cc7ccccn7)nc6)n5)cn4)CC3)CC2)c(F)cc1NC1CCC(=O)NC1=O (centres unmarked)
4. CCC1(C(=O)NC(C)C)CCN(c2ccc(-c3nc(-c4cnn([C@H]5CC[C@H](N6CCC(c7ccc(N[C@@H]8CCC(=O)NC8=O)cc7F)CC6)CC5)c4)cn4ncc(C#N)c34)cn2)CC1 (single isomer, unassigned)
5. CCC1(C(=O)NC(C)C)CCN(c2ccc(-c3nc(-c4cnn(C5CN(C(=O)CC6(O)CCN(c7ccc(NC8CCC(=O)NC8=O)cc7F)CC6)C5)c4)cn4ncc(C#N)c34)cn2)CC1 (centres unmarked)
6. COc1cc(N2CCN([C@H]3CC[C@H](n4cc(-c5cn6ncc(C#N)c6c(-c6ccc(N7C[C@@H]8C[C@@](C)(NC(=O)c9ncccc9Cl)C[C@@H]8C7)nc6)n5)cn4)CC3)CC2)c(F)cc1NC1CCC(=O)NC1=O (some centres unmarked)
7. CCC1(C(=O)NC(C)(C)C)CCN(c2ccc(-c3nc(-c4cnn([C@H]5CC[C@H](N6CCC(c7ccc(N[C@@H]8CCC(=O)NC8=O)cc7F)CC6)CC5)c4)cn4ncc(C#N)c34)cn2)CC1 (single isomer, unassigned)
8. CCC1(C(=O)NC(C)(C)C)CCN(c2ccc(-c3nc(-c4cnn(C5CCN(C(=O)CC6(O)CCN(c7ccc(NC8CCC(=O)NC8=O)cc7Cl)CC6)CC5)c4)cn4ncc(C#N)c34)cn2)CC1 (centres unmarked)

Reply |
++++ (<50 nM = ++++)
+++ (<100 nM = +++)
+++ (<100 nM = +++)
++++ (<50 nM = ++++)
++++ (<50 nM = ++++)
++++ (<50 nM = ++++)
++++ (<50 nM = ++++)
++++ (<50 nM = ++++)
